Value source: patent US3950354A

Kindly supply the reported MIC values for the records listed here.
- Test system: Candida albicans
- TEST METHOD NOTES: Anti-mycotic spectrum of action in vitro, series dilution test (Candida albicans)
- Format: cell-based
- CONDITION DESCRIPTION: w.s. = with 30% serum added, read-out: Minimum inhibitory concentration

Quick check: MIC of CCOC(=O)N1CCN(C(=O)C(c2ccccc2)(c2ccccc2)n2ccnc2)CC1 ? > 64 µg/mL

Try this compound next: O=C(NC1CCCCC1)C(c1ccccc1)(c1ccccc1)n1ccnc1 8 µg/mL

Moving on to O=C(N1CCS(=O)(=O)CC1c1ccccc1)C(c1ccc(Cl)cc1)(c1ccc(Cl)cc1)n1ccnc1 (stereo not shown) > 64 µg/mL

What do you get for O=C(Nc1cccc(C(F)(F)F)c1)C(c1ccccc1)(c1ccccc1)n1ccnc1 ? > 64 µg/mL

====

- System: Candida albicans
- TEST METHOD NOTES: Anti-mycotic spectrum of action in vitro, series dilution test (Candida albicans)
- Format: cell-based
- CONDITION DESCRIPTION: n.s. = no serum added, meat broth-glucose bouillon, 28°C, 24 to 96 hours, read-out: Minimum inhibitory concentration
- Protocol: Determination of the anti-mycotic spectrum of action in vitro, by the series dilution test The nutrient substrates used were Sabouraud's milieu d'epreuve for dermatophytes and moulds, and meat broth-glucose bouillon for blastomycetes and biphase fungi. The incubation temperature was 28°C and the incubation time was 24 to 96 hours.
EXPERIMENTAL ENDPOINT: MIC

Give its MIC value. Item: O=C(Nc1cccc(C(F)(F)F)c1)C(c1ccccc1)(c1ccccc1)n1ccnc1 > 64 µg/mL

Next up: O=C(N1CCS(=O)(=O)CC1)C(c1ccc(Cl)cc1)(c1ccc(Cl)cc1)n1ccnc1 > 100 µg/mL

Also O=C(N1CCN(c2ccccc2Cl)CC1)C(c1ccccc1)(c1ccccc1)n1ccnc1 ? > 100 µg/mL

Now give it for O=C(N1CCS(=O)(=O)CC1c1ccccc1)C(c1ccc(Cl)cc1)(c1ccc(Cl)cc1)n1ccnc1 (stereo not shown) too. > 64 µg/mL
